All values here come from paper PMC2774616.

tested on: Thapsigargin-induced NFAT reporter activity, TrkC-NFAT-bla CHO-K1 cells; experiment: Inhibition of Thapsigargin-induced NFAT reporter activity in TrkC-NFAT-bla CHO-K1 cells; assay type: cell-based; settings: TrkC cells, Thapsigargin 8 nM, 5 h; * values may not be accurate, curves did not reach saturation; read-out: IC50, TrkC, Thaps
Can you tell me IC50 for the items I'm about to list?
Answers are plain numbers, in µM.

Below, each entry is followed by its recorded IC50 result.
{"Compound": "CC(C)(C)c1cc(/C=C(\\C#N)C(N)=S)cc(C(C)(C)C)c1O", "IC50 / µM": 0.231}
{"Compound": "Cn1cc(/C=C2\\C(=O)Nc3cccnc32)c2ccccc21", "IC50 / µM": 8.97}

Kindly review the next compound as well.
Asked: Specify IC50 for COC(=O)[C@@]1(O)C[C@H]2O[C@]1(C)n1c3ccccc3c3c4c(c5c6ccccc6n2c5c31)C(=O)NC4 [K252a] and stop.
Given back: 0.5
